Biological target: human 17β-HSD1 (Homo sapiens)
Construct: expressed in transfected cells; host or cells: HEK-293 (ATCC), used as cell lysate
Sequence (P14061 1-328): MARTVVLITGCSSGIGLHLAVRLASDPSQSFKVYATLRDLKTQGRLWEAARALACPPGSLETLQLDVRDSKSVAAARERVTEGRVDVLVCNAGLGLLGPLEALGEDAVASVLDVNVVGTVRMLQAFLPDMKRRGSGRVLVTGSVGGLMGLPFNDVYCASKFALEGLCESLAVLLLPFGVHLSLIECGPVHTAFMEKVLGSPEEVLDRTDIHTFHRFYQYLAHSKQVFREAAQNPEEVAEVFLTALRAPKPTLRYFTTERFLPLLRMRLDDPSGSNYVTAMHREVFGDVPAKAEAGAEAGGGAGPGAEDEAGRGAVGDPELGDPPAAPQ
Assay: 17β-HSD1 activity assay using lysates of HEK-293 cells expressing the recombinant human enzyme
Format: biochemical
Conditions: 17β-HSD1 versus 17β-HSD2
# key: entry, value: selectivity factor

compound | selectivity factor
O=c1c(-c2ccc(O)cc2O)coc2cc(O)cc(O)c12 [compound 9, 2′-hydroxygenistein] | 0.5
CC(Cc1ccc(O)c(O)c1)C(C)Cc1ccc(O)c(O)c1 (centres unmarked) [compound 1, nordihydroguaiaretic acid] | 15
COc1cc(C[C@@H](C)[C@H](C)Cc2ccc(O)c(OC)c2)ccc1O [compound 4, (−)-dihydroguaiaretic acid] | 8

----------
Target: human 17β-HSD1 (Homo sapiens, UniProt P14061)
Assay: 17β-HSD1 activity assay using lysates of HEK-293 cells expressing the recombinant human enzyme
Conditions: HEK-293 lysates, 200 nM estrone, 500 μM NADPH
pIC50: −log10 of the molar value.
# key: entry, value: pIC50
observed property: pIC50

compound | assay result
CC(Cc1ccc(O)c(O)c1)C(C)Cc1ccc(O)c(O)c1 (stereo not shown) [compound 1, nordihydroguaiaretic acid] | 5.26
O=c1c2c(O)cc(O)cc2oc2oc3cc(O)ccc3c12 | 7.31
O=c1c(-c2ccc(O)cc2O)coc2cc(O)cc(O)c12 [compound 9, 2′-hydroxygenistein] | 5.96
COc1cc(C[C@@H](C)[C@H](C)Cc2ccc(O)c(OC)c2)ccc1O [compound 4, (−)-dihydroguaiaretic acid] | 5.11

----------
# key: entry, value: 17β-HSD2 remaining activity at 20 μM (% of control)
Biological target: human 17β-HSD2 (Homo sapiens, UniProt P37059)
Construct: expressed in transfected cells; host or cells: HEK-293 (ATCC), used as cell lysate
Sequence (P37059 whole entry): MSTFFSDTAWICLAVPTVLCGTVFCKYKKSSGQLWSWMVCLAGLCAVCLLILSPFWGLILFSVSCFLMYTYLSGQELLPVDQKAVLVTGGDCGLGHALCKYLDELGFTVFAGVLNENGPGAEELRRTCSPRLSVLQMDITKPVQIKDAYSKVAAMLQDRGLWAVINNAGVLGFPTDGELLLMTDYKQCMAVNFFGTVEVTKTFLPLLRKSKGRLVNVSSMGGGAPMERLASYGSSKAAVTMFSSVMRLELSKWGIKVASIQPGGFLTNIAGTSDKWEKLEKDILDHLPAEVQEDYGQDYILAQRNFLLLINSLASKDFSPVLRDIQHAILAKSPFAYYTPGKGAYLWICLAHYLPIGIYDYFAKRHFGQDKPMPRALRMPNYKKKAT
Test: 17β-HSD2 activity assay using lysates of HEK-293 cells expressing the recombinant human enzyme
Assay type: biochemical
Details: 20 μM compound; % of vehicle control
observed property: 17β-HSD2 remaining activity at 20 μM (% of control) (%)

compound | assay result
COC(=O)c1cc2c(c(O)c1OC)[C@H](C)C[C@@H](O)[C@H]2[C@@H](C)CCC=C(C)C [S18] | 59
COc1cc(C)cc2oc3ccc(O)c(C(=O)O)c3c(=O)c12 [S10] | 64
CCN(CC)CCCC(C)Nc1ccnc2cc(Cl)ccc12 (racemic) [S17, (±)-chloroquine, reference compound] | 111
COc1cc(CCC(C)=O)ccc1O [S2, vanillyl acetone] | 106
COc1cc(/C=C/C(=O)O)ccc1O [S5, ferulic acid] | 79

----------
Target: human 17β-HSD2 (Homo sapiens)
Construct: expressed in transfected cells; host or cells: HEK-293 (ATCC), used as cell lysate
Assay: 17β-HSD2 activity assay using lysates of HEK-293 cells expressing the recombinant human enzyme;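 also: conversion of tritium-labelled estradiol (200 nM, with 500 µM NAD+, 10 min) quantified after TLC separation by scintillation counting, at least three independent measurements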
Format: biochemical
Conditions: tested at 20 μM
observed property: 17β-HSD2 inhibition (in words)

molecule | observed property | assay result
CCCCNC(=O)Cc1ccc(O)c(Cl)c1 | 17β-HSD2 inhibition (in words) | moderately active
COCCNC(=O)Cc1ccc(O)c(Cl)c1 | 17β-HSD2 inhibition (in words) | moderately active
NC(=O)Cc1ccc(O)cc1 [S16, 2-(4-hydroxyphenyl)acetamide] | 17β-HSD2 inhibition (in words) | did not inhibit
NC(=O)Cc1ccc(O)c(Cl)c1 [S11, 2-(3-chloro-4-hydroxyphenyl)acetamide] | 17β-HSD2 inhibition (in words) | did not inhibit
O=C(O)Cc1ccc(O)cc1 [S15, 2-(4-hydroxyphenyl)acetic acid] | 17β-HSD2 inhibition (in words) | did not inhibit
